The next entries give measured pIC50 for Dihydrofolate reductase (Rattus norvegicus, UniProt Q920D2).
pIC50: −log10 of the molar value.
experimentalReadout: pIC50

See these solved cases before continuing.
[[record]]
molecule = "Nc1nc(N)c2c(n1)CCC(Cc1cccc(C(F)(F)F)c1)C2 (centres undefined)"
observedmeasurement = 6.72

[[record]]
molecule = "Nc1nc(N)c2c(n1)CCC(Cc1ccsc1)C2 (centres undefined)"
observedmeasurement = 6.89

[[record]]
molecule = "Nc1nc(N)c2c(n1)CCC(Cc1ccccc1)C2 (centres undefined)"
observedmeasurement = 6.74


1: Nc1nc(N)c2c(n1)CCC(Cc1ccc(Cl)c(Cl)c1)C2 (centres undefined)
2: COc1ccc(CC2CCc3nc(N)nc(N)c3C2)cc1 (centres undefined)
Which has the smaller recorded pIC50, 1 or 2 ? The response must carry the label of the picked entry.
1

I: COc1ccc(CC2CCc3nc(N)nc(N)c3C2)cc1OC (centres undefined)
II: COc1ccc(OC)c(CN2CCc3nc(N)nc(N)c3C2)c1
III: CCC1CCc2nc(N)nc(N)c2C1 (centres undefined)
IV: Nc1nc(N)c2c(n1)CCC(Cc1ccc(OC(F)(F)F)cc1)C2 (centres undefined)
V: COc1ccc(OC)c(CC2CCc3nc(N)nc(N)c3C2)c1 (centres undefined)
Would you mind ranking these molecules by ascending pIC50? API: response body holds the labels in the requested order.
III, II, IV, I, V

I: COc1cc(CN2CCc3nc(N)nc(N)c3C2)cc(OC)c1OC
II: Cc1cccc(CC2CCc3nc(N)nc(N)c3C2)c1 (centres undefined)
Which value of pIC50 is greater, the one for I or the one for II ? The response must carry the label of the picked entry.
II
(II: 6.96, I: 5.66)

====

Test system: NCI-H226
Assay: Compound was tested for the growth inhibition of NCI-H226 lung tumor cell line
Type: functional, cell-based
Settings: Homo sapiens
pIC50: −log10 of the molar value.
experimentalReadout: pIC50

I: COc1ccc(OC)c(CC2CCc3nc(N)nc(N)c3C2)c1 (configuration not stated)
II: COc1ccc(CC2CCc3nc(N)nc(N)c3C2)cc1OC (configuration not stated)
Which has the smaller recorded pIC50, I or II ? The response must carry the label of the picked entry.
I
(I: 4.51, II: 4.92)

====

Test system: BT-549
Assay: Compound was tested for the growth inhibition of BT-549 breast carcinoma cell line
Assay type: functional, cell-based
Settings: Homo sapiens
experimentalReadout: IC50 (nM)

[[record]]
compound = "COc1ccc(CC2CCc3nc(N)nc(N)c3C2)cc1OC (stereo not drawn)"
observedmeasurement = 270


P: COc1ccc(OC)c(CC2CCc3nc(N)nc(N)c3C2)c1 (stereo not drawn)
Q: COc1cc(CC2CCc3nc(N)nc(N)c3C2)cc(OC)c1OC (stereo not drawn)
Which has the smaller recorded IC50, P or Q ? The response must carry the label of the picked entry.
P
(P: 330 nM, Q: 11000 nM)

====

Molecular target: Bifunctional dihydrofolate reductase-thymidylate synthase (Toxoplasma gondii, UniProt Q07422)
Sequence (Q07422 whole entry): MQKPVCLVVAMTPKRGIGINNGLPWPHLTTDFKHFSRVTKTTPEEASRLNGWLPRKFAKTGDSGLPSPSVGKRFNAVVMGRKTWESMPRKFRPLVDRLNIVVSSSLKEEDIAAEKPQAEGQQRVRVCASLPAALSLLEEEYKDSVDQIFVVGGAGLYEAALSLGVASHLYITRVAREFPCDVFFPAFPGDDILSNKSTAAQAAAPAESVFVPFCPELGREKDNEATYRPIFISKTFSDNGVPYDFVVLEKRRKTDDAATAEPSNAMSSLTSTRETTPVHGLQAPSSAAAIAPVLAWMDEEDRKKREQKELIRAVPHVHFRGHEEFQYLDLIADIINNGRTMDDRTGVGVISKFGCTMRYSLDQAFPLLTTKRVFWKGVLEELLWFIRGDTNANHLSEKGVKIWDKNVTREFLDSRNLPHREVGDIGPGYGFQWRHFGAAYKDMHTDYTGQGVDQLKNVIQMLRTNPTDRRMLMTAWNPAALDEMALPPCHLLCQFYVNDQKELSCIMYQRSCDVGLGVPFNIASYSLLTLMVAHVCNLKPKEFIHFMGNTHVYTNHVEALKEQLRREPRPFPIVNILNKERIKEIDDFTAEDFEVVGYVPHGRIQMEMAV
experimentalReadout: IC50 (nM)
The answer is to be given in nM; state only the numeric part.

See these solved cases before continuing.
[[record]]
compound = "Nc1nc(N)c2c(n1)CCC(CC1CCCO1)C2 (configuration not stated)"
experimentalreadout = "IC50"
observedmeasurement = 40

[[record]]
compound = "COc1ccc(OC)c(CC2CCc3nc(N)nc(N)c3C2)c1 (configuration not stated)"
experimentalreadout = "IC50"
observedmeasurement = 21

[[record]]
compound = "Nc1nc(N)c2c(n1)CCC(Cc1ccc(OC(F)(F)F)cc1)C2 (configuration not stated)"
experimentalreadout = "IC50"
observedmeasurement = 73

[[record]]
compound = "Nc1nc(N)c2c(n1)CCC(Cc1ccsc1)C2 (configuration not stated)"
experimentalreadout = "IC50"
observedmeasurement = 49

[[record]]
compound = "Cc1ccccc1CC1CCc2nc(N)nc(N)c2C1 (configuration not stated)"
experimentalreadout = "IC50"
observedmeasurement = 23


If you can, please state the reported IC50 value of COc1ccc(CC2CCc3nc(N)nc(N)c3C2)cc1OC (configuration not stated) .
23

Also check COc1ccc(OC)c(CN2CCc3nc(N)nc(N)c3C2)c1
300

Also check COc1cc(CN2CCc3nc(N)nc(N)c3C2)cc(OC)c1OC
200
